Origin of the recorded values: PubChem BioAssay (NCATS)

Experiment: Drug repurposing screens with cells derived from glioblastoma tumor samples (AID 1345199); note: % is set by controls: 0 for no effect and ±100 for the full control effect
Settings: GBM patient neurospheres viability, ATP luminescence, 48 h; at 45.9 µM (top of the series); tumour line B
Results filed as inconclusive are left out.
Observable: activity, negative = cell killing (%)
A number alone suffices; assume %.

Compound | Observable | Unit name | Recorded result
O=C(O)CCC/C=C\C[C@@H]1[C@@H](/C=C/[C@@H](O)COc2cccc(C(F)(F)F)c2)[C@H](O)C[C@@H]1O | activity, negative = cell killing | % | -0.927
CC(C)(CO)[C@@H](O)C(=O)NCCC(=O)NCCSSCCNC(=O)CCNC(=O)[C@H](O)C(C)(C)CO | activity, negative = cell killing | % | -16.4

Req: Quick one: activity, negative = cell killing of "CCOC(=O)Cc1ccc(-c2ccccc2)cc1" ?
Resp: -6.74

Req: Would you kindly repeat that for "COc1ccc(/C=N/NC(=O)c2ccncc2)c(C(=O)O)c1OC" ?
Resp: -18.2

Req: Would you kindly repeat that for "O=C(O)C1=C(CSc2nnnn2CS(=O)(=O)O)CS[C@@H]2[C@H](NC(=O)[C@H](O)c3ccccc3)C(=O)N12" ?
Resp: -15.2

Req: Would you kindly repeat that for CCC(C(=O)NC(N)=O)c1ccccc1 (stereo not given) ?
Resp: -5.95

Req: Would you kindly repeat that for CC[C@H]1OC(=O)[C@H](C)[C@@H](O[C@H]2C[C@@](C)(OC)[C@@H](O)[C@H](C)O2)C(C)[C@@H](O[C@@H]2O[C@H](C)C[C@H](N(C)C)[C@@H]2O)[C@](C)(OC)C[C@@H](C)C(=O)[C@H](C)[C@@H](O)[C@]1(C)O (stereo not given in full) ?
Resp: -10.3

Req: Would you kindly repeat that for "CN[C@@H]1[C@H](O[C@H]2[C@H](O[C@H]3[C@H](O)[C@@H](O)[C@H](N=C(N)N)[C@@H](O)[C@@H]3N=C(N)N)O[C@@H](C)[C@]2(O)CO)O[C@@H](CO)[C@H](O)[C@H]1O" ?
Resp: -12.7

Req: Would you kindly repeat that for "CCCCCCCCCCCCCCCCCC(=O)OC[C@@H](O)[C@H]1OC[C@H](O)[C@H]1O" ?
Resp: 3.83

Req: Would you kindly repeat that for CC(O)CN(C)C (stereo not given) ?
Resp: -7.97

Req: Would you kindly repeat that for "O=C(O)COc1ccccc1/C=N/NC(=O)c1ccncc1" ?
Resp: -7.55

Req: Would you kindly repeat that for NS(=O)(=O)c1cc2c(cc1Cl)NC(Cc1ccccc1)NS2(=O)=O (stereo not given) ?
Resp: 4.57

Req: Would you kindly repeat that for "[O]=[Bi][O]C(=O)[O][Bi]=[O]" ?
Resp: -5.84

Req: Would you kindly repeat that for "O=P(O)(O)OP(=O)(O)O" ?
Resp: -12.9

Req: Would you kindly repeat that for "Oc1cc(O)cc(O)c1" ?
Resp: -4.88

Req: Would you kindly repeat that for CC1(C)S[C@@H]2[C@H](N3C(=O)C(c4ccccc4)NC3(C)C)C(=O)N2[C@H]1C(=O)O (stereo not given in full) ?
Resp: -8.88

Req: Would you kindly repeat that for "CN(C)C=Nc1c(I)cc(I)c(CCC(=O)O)c1I" ?
Resp: -15.9

Req: Would you kindly repeat that for "O=C1CCC(=O)N1CO" ?
Resp: -0.626

Req: Would you kindly repeat that for "COc1cc(C)c(/C=C/C(C)=C/C=C/C(C)=C/C(=O)O)c(C)c1C" ?
Resp: -16.3

Req: Would you kindly repeat that for "Cc1ncc[nH]1" ?
Resp: -1
